- tested-target: IL-23R-expressing DB cells (Homo sapiens, UniProt Q5VWK5)
- Sequence (Q5VWK5 24-629 limits assumed): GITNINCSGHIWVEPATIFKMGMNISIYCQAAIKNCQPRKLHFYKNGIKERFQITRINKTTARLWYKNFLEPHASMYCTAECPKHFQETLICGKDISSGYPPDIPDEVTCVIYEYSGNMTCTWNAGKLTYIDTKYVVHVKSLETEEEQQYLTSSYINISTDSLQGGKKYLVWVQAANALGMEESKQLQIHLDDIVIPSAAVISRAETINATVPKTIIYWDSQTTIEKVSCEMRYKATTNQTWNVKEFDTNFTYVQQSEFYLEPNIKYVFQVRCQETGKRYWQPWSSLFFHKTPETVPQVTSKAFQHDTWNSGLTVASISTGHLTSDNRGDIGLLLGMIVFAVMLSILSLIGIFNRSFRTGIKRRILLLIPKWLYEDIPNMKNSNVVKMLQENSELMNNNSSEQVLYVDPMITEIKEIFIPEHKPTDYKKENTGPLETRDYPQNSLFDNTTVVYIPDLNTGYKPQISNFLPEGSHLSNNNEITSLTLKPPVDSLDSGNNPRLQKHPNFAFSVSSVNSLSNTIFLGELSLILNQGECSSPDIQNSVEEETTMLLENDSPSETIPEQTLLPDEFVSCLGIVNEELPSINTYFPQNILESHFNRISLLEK
- test-description: DB cells IL23R pSTAT3 cell assay (pStat3HTRF)
- setup-conditions: DB cells stimulated with IL-23 0.5 nM, 30 minutes, phospho-STAT3 in cell lysates; read-out: pStat3 HTRF
Bridge positions count the residues as written; N and C are the ends. Square brackets hold non-standard residues; d marks the D form. Peptide text beside a SMILES is read from it. Trp(7-Me) = Cc1cccc2c(C[C@H](N)C(=O)O)c[nH]c12; 2Nal = N[C@@H](Cc1ccc2ccccc2c1)C(=O)O; AEF = NCCOc1ccc(C[C@H](N)C(=O)O)cc1; Cit = NC(=O)NCCC[C@H](N)C(=O)O; αMeL = CC(C)C[C@](C)(N)C(=O)O; Pen = CC(C)(S)[C@H](N)C(=O)O; βAla = NCCC(=O)O
assay-readout: pIC50
Formally, pIC50 is defined as -log10 of the concentration c, with c in mol/L.

Query: Answer with the recorded pIC50 of CC(=O)NCCCC[C@H](NC(=O)[C@](C)(CC(C)C)NC(=O)[C@H](Cc1ccc2ccccc2c1)NC(=O)[C@H](Cc1ccc(OCCN)cc1)NC(=O)[C@H]1NC(=O)[C@H](CCCNC(N)=O)NC(=O)[C@H](Cc2c[nH]c3c(C)cccc23)NC(=O)[C@H]([C@@H](C)O)NC(=O)[C@H](CC(N)=O)NC(=O)[C@@H](NC(C)=O)C(C)(C)SSC1(C)C)C(=O)N[C@@H](CC(N)=O)C(=O)NCCC(N)=O [compound 227] (Ac-[Pen]NT[Trp(7-Me)][Cit][Pen][AEF][2Nal][αMeL]K(Ac)N[βAla]-NH2; disulfide 1-6) only.
Result: 9.15
